Test system: NCI-H322M lung
Test: NCI-60 one-dose screen, 48 h (100 = growth as untreated, 0 = no growth, -100 = all killed)
Conditions: 10 µM unless noted
About 83,000 compounds went through this panel and 20% of them were active in at least one assay; those are over-represented in the sample as a whole.
If the reported growth equals or exceeds 30%, assign Fulfilled. If not, assign Not fulfilled.

Below are worked cases with known answers.
COC(=O)[C@]12CC[C@@H](C)[C@H](C)[C@@H]1C1=CC[C@@H]3[C@@]4(C)C(C#N)=CC(C)=C4CC[C@@]3(C)[C@]1(C)CC2 : Fulfilled
CO[C@H](C(=O)N[C@@H](CCCCNC(=O)OCc1ccccc1)C(=O)OC(C)(C)C)[C@@H]1Cc2cc3cc(OC4CC(OC5CC(O)C(O)C(C)O5)C(O)C(C)O4)c(C)c(O)c3c(O)c2C(=O)[C@H]1OC1CC(OC2CC(OC3CC(C)(O)C(O)C(C)O3)C(O)C(C)O2)C(O)C(C)O1 (stereo partly specified) : Not fulfilled
CN1CCN(CCOc2cc(OC3CCOCC3)c3c(Nc4c(Cl)ccc5c4OCO5)ncnc3c2)CC1 : Not fulfilled
CCN(CC)c1cc2oc3cc(N)cc(=N)c-3nc2cc1C : Fulfilled
C=CC[n+]1c(/C=C/C=C2\N(C)c3ccccc3C2(C)C)sc2ccc(OC)cc21 : Not fulfilled

Lab note: next compound to report on.
Ask | hey, is growth for this one >= 30%? CC(=Nc1ccccc1)C1=C(O)C(Cc2ccccc2)NC1=O (stereo unspecified)
Reply | Fulfilled

----------
Test system: ACHN renal
Test: NCI-60 one-dose screen, 48 h (100 = growth as untreated, 0 = no growth, -100 = all killed)
Settings: 10 µM unless noted
Procedure: Growth inhibition of the ACHN human tumor cell line is measured as a screen for anti-cancer activity. Cells are grown in 96 well plates and exposed to the test compound for 48 hours. Compounds are tested at a single concentration, which is 10^-5 M for most compounds. The reported endpoint is percent growth (GI% or GIPRCNT), where numbers from 0 - 100% represent growth inhibition, and numbers from -100% - 0 represent cell death. For example, a value of 40 represents 60% growth inhibition. […]
The panel holds about 83,000 compounds, 20% with a hit somewhere; the sample as a whole holds those more often.
recordedMetric: growth (%)
Field format: number, assumed %, no unit text.

CC(C)(C)c1nc(-c2cccc(NS(=O)(=O)c3c(F)cccc3F)c2F)c(-c2ccnc(N)n2)s1 : 59.3
CNS(=O)(=O)Nc1nccc(Cc2c(C)c3ccc(Oc4ncccn4)cc3oc2=O)c1F : 56.8
CCc1nc2cc(/C=C/C(=O)NO)ccc2c(=O)n1CCc1ccc(OC)cc1 : 9.54
Clc1nc(Cl)c2ncn(C/C=C\Cn3cnc4c(Cl)nc(Cl)nc43)c2n1 : -94.5
Clc1ccc2c(NCCCNCc3ccc4c(c3)OCO4)ccnc2c1 : 40.6
COc1cc2ncnc(Nc3ccc(F)c(Cl)c3)c2cc1NC(=O)/C=C/CN1CCCCC1 : -97.9
O=C(/C=C/c1ccc2c(c1)OCO2)c1c(O)c2ccccc2oc1=O : 102
O=C1CC(c2ccc(Cl)cc2)c2ncn(-c3cccc(Cl)c3)c2N1 (centres undefined) : 52.6
C[C@@H](Oc1cc(C(=O)Nc2ccc(C(=O)N3CCN(C)CC3)cc2)nnc1N)c1c(Cl)ccc(F)c1Cl : 91.8
CO[C@@H](C)Cn1c(=O)n(C)c2cnc3ccc(-c4cncc(C(C)(C)O)c4)cc3c21 : 3.66

Ask | What growth value was documented for this molecule, O=C1NC(=O)[C@@H](c2cn3c4c(cccc24)CCC3)[C@@H]1c1c[nH]c2ccccc12 ?
Reply | 35.7

Ask | What growth value was documented for this molecule, CCN1CCN(c2cc(C)nc(N(CCCNc3ccnc4cc(Cl)ccc34)Cc3cccs3)n2)CC1 ?
Reply | 7.79

----------
Quick reference for growth among some compounds
Tested on: OVCAR-5 ovarian
Assay: NCI-60 one-dose screen, 48 h (100 = growth as untreated, 0 = no growth, -100 = all killed)
Settings: 10 µM unless noted
Experimental: Growth inhibition of the OVCAR-5 human tumor cell line is measured as a screen for anti-cancer activity. Cells are grown in 96 well plates and exposed to the test compound for 48 hours. Compounds are tested at a single concentration, which is 10^-5 M for most compounds. The reported endpoint is percent growth (GI% or GIPRCNT), where numbers from 0 - 100% represent growth inhibition, and numbers from -100% - 0 represent cell death. For example, a value of 40 represents 60% growth inhibition. […]
Compounds without any hit were thinned out: in the full panel of roughly 83,000, 20% have a hit.
Field format: number, assumed %, no unit text.

C=CCCCOC1[C@H](OCc2ccccc2)C(OCc2ccccc2)C(OC)O[C@@H]1CNC(=O)c1cccc(I)c1 (stereo partly drawn) : 69
CCCCOc1nc2cc(Cl)ccc2cc1/C=C/c1cc(/C=C/c2cc3ccc(Cl)cc3nc2OCCCC)n(-c2ccccc2)n1 : 107
CC(=O)Nc1cccc(-n2c(=O)n(C3CC3)c(=O)c3c(Nc4ccc(I)cc4F)n(C)c(=O)c(C)c32)c1 : 6.47
CC(C)[C@@H]1CC[C@]2(CO2)[C@@H]2C(=O)OCC(C(=O)O)=C[C@H]21 : 22
O=CC(OC(=O)c1ccccc1)C(OC(=O)c1ccccc1)C(COC(c1ccccc1)(c1ccccc1)c1ccccc1)OC(=O)c1ccccc1 (stereo not drawn) : 61

Ask | What growth value was documented for this compound, CNC(=O)c1cc(Oc2ccc(NC(=O)Nc3ccc(Cl)c(C(F)(F)F)c3)c(F)c2)ccn1 ?
Reply | 3.12

Ask | What growth value was documented for this compound, COC(=O)[C@H](Cc1ccccc1)NC(=O)[C@@H](OC)[C@@H]1Cc2cc3cc(OC4CC(OC5CC(O)C(O)C(C)O5)C(O)C(C)O4)c(C)c(O)c3c(O)c2C(=O)[C@H]1OC1CC(OC2CC(OC3CC(C)(O)C(O)C(C)O3)C(O)C(C)O2)C(O)C(C)O1 (stereo partly drawn) ?
Reply | 8.6

Ask | What growth value was documented for this compound, C=CCN(/C=C1/C(=O)O[C@H](COC)[C@@]2(C)C1=C(O)C(=O)C1=C2[C@H](OC(C)=O)C[C@]2(C)C(=O)CC[C@@H]12)CC=C ?
Reply | 20.5

----------
System: OVCAR-4 ovarian
Test: NCI-60 one-dose screen, 48 h (100 = growth as untreated, 0 = no growth, -100 = all killed)
Details: 10 µM unless noted
The panel holds about 83,000 compounds, 20% with a hit somewhere; the sample as a whole holds those more often. Active and inactive are the calls of the source. How the source made its calls: active means growth percent below 10; inactive means the rest.
Quick reference for growth among some molecules

Ask | What growth value was documented for this molecule, CC1(O)CC(c2nc(-c3ccc4ccc(-c5ccccc5)nc4c3)c3c(N)nccn23)C1 (configuration not stated) ?
Reply | 33.1% (inactive)

Ask | What growth value was documented for this molecule, Cc1ccc(NC(=O)NC(=O)CSc2nc3ccccc3nc2C)cc1 ?
Reply | 23.3% (inactive)

Ask | What growth value was documented for this molecule, N#Cc1ccc(-n2nnc3ccccc32)cc1C#N ?
Reply | 110% (inactive)

Ask | What growth value was documented for this molecule, CCN(CC)CCNc1ccc(N=Nc2cnc3ccccc3c2)c2ccccc12 ?
Reply | -25.3% (active)

Ask | What growth value was documented for this molecule, COC(=O)[C@H](Cc1ccc(O)cc1)NC(=O)[C@@H](OC)[C@@H]1Cc2cc3cc(OC4CC(OC5CC(O)C(O)C(C)O5)C(O)C(C)O4)c(C)c(O)c3c(O)c2C(=O)[C@H]1OC1CC(OC2CC(OC3CC(C)(O)C(O)C(C)O3)C(O)C(C)O2)C(O)C(C)O1 (some centres not stated) ?
Reply | 7.27% (active)

Ask | What growth value was documented for this molecule, CC[C@@H]1C(=O)N(C)c2cnc(Nc3ccc(C(=O)NC4CCN(C)CC4)cc3OC)nc2N1C1CCCC1 ?
Reply | 35.3% (inactive)

Ask | What growth value was documented for this molecule, ClCc1ccc(-c2ccc(Cn3cnc4nc(Cl)nc(Cl)c43)cc2)cc1 ?
Reply | 46.6% (inactive)

Ask | What growth value was documented for this molecule, Clc1ccc(C(Cn2ccnc2)OCc2ccsc2Cl)c(Cl)c1 (configuration not stated) ?
Reply | 52.7% (inactive)

----------
Quick reference for growth among some compounds
Test system: SK-OV-3 ovarian
Assay: NCI-60 one-dose screen, 48 h (100 = growth as untreated, 0 = no growth, -100 = all killed)
Conditions: 10 µM unless noted
The panel holds about 83,000 compounds, 20% with a hit somewhere; the sample as a whole holds those more often.
Field format: number, assumed %, no unit text.

Examples with their reported growth follow.
O=C(NO)c1ccc(Cn2c(=O)n(CCc3ccccc3)c(=O)c3ccccc32)cc1 : 26.3
Cc1cc2c(-c3nc4ccccn4c3N)c(O)c(O)cc2c(O)c1-c1c(C)cc2c(-c3nc4ccccn4c3N)c(O)c(O)cc2c1O : -10.4
CC(C)(C)CC(C)(C)Nc1c(-c2c(O)c3ccccc3oc2=O)nc2c(Cl)cc(C(F)(F)F)cn12 : 93
O=C(Cc1ccc(/C=C/C(=O)c2ncc[nH]2)cc1)Nc1ccc(Br)cc1 : 70.2
CCN(CC)CCNC(=O)c1c(C)[nH]c(/C=C2\C(=O)Nc3ccc(F)cc32)c1C : 26.9
COc1ccc2c(CCCc3ccc(Cl)cc3Cl)c3[n+](cc2c1OC)CCc1cc2c(cc1-3)OCO2 : -8.36

Ask | What growth value was documented for this compound, CCCS(=O)(=O)Nc1ccc(F)c(C(=O)c2c[nH]c3ncc(-c4ccc(Cl)cc4)cc23)c1F ?
Reply | -0.481

Ask | What growth value was documented for this compound, Cn1c(Nc2ccc(C(F)(F)F)cc2)nc2cc(Oc3ccnc(-c4ncc(C(F)(F)F)[nH]4)c3)ccc21 ?
Reply | 6.69

Ask | What growth value was documented for this compound, CC(C)[C@@H](C)/C=C/[C@@H](C)[C@H]1CCC2=C3C=CC4=CC(=O)CC[C@]4(C)[C@H]3CC[C@@]21C ?
Reply | 105
